- Tested on: HT-1080 cells
- measurement.protocol: HT-1080 cell viability assay (ferroptosis induced by RSL3, Cell Titer-Glo)
- Format: cell-based
- run.conditions: Homo sapiens, HT-1080, 20 h, ferroptosis inducer RSL3, 20 hours, ferroptosis inhibitory activity, Table 2
// EC50 lookup, one value per entry

compound="NC1CCC(CNc2ccc(N3CCS(=O)(=O)CC3)cc2)CC1 (stereo not drawn) [Compound 449]" data_value="1000 to 10000 nM"
compound="Cc1cc(NC2CC3(CC(N)C3)C2)c(C)nc1N1CC(C)OC(C)C1 (stereo not drawn) [Compound 476]" data_value="0.1 to 100 nM"
compound="CC1(C)Cc2ccc(NC3CCC(N)CC3)cc2C1 (stereo not drawn) [Compound 324]" data_value="0.1 to 100 nM"
compound="COCCCCOc1cc(NC2CCC(N)CC2)ccc1C(C)(C)C (stereo not drawn) [Compound 254]" data_value="0.1 to 100 nM"
compound="CC(C)(C)c1ccc(NC2CCC(N)CC2)cc1Cl (stereo not drawn) [Compound 201]" data_value="100 to 1000 nM"

# input Form entry - test system: HT-1080 cells; read-out: EC50; compound: CC1CCC(Nc2ccc(N3CCC(C(F)(F)F)CC3)cc2)CC1 (stereo not drawn) [Compound 4A]
# output 0.1 to 100 nM

Data origin: patent US20240360114A1
